Consider the following compounds; for each one, report its viability, T/C.
Tested on: KRAS-mutant PDC multicell tumor spheroid viability
experiment: Anticancer human tumor 521955-158-R2-J5-PDC patient-derived pancreatic carcinoma cell line growth inhibition [KRAS2]
test-settings: second compound 3.16 µM; first compound 1 µM; stronger effect = lower value
Give bare numbers, in %.

Examples from the recorded data:
compound="Cn1nccc1Nc1nccc(-c2cc3c(s2)C(C)(C)N(CCN2CCOCC2)C3=O)n1 + C=CC(=O)N1CCN(c2nc(OCC3CCCN3C)nc3c2CCN(c2cccc4cccc(C)c24)C3)CC1CC#N" study_system="KRAS-mutant PDC multicell tumor spheroid viability" measure_name="viability, T/C" result_units=% observed_measurement=1.86
compound="COc1cc(Nc2ncc3c(n2)-c2ccc(Cl)cc2C(c2c(F)cccc2OC)=NC3)ccc1C(=O)O + COc1cc2nc(C)nc(NC(C)c3cc(N)cc(C(F)(F)F)c3)c2cc1OC1CCOC1" study_system="KRAS-mutant PDC multicell tumor spheroid viability" measure_name="viability, T/C" result_units=% observed_measurement=33.7
compound="CC(C)NCC(C(=O)N1CCN(c2ncnc3c2C(C)CC3O)CC1)c1ccc(Cl)cc1 (stereo not given) + C=CC(=O)N1CCN(c2nc(=O)n(-c3c(C)ccnc3C(C)C)c3nc(-c4c(O)cccc4F)c(F)cc23)C(C)C1" study_system="KRAS-mutant PDC multicell tumor spheroid viability" measure_name="viability, T/C" result_units=% observed_measurement=43.2
compound="COc1cc(Nc2ncc3c(n2)-c2ccc(Cl)cc2C(c2c(F)cccc2OC)=NC3)ccc1C(=O)O + C=CC(=O)N1CCN(c2nc(=O)n(-c3c(C)ccnc3C(C)C)c3nc(-c4c(O)cccc4F)c(F)cc23)C(C)C1" study_system="KRAS-mutant PDC multicell tumor spheroid viability" measure_name="viability, T/C" result_units=% observed_measurement=40.3
compound="O=C(c1cc(Cc2n[nH]c(=O)c3ccccc23)ccc1F)N1CCN(C(=O)C2CC2)CC1 + C=CC(=O)N1CCN(c2nc(=O)n(-c3c(C)ccnc3C(C)C)c3nc(-c4c(O)cccc4F)c(F)cc23)C(C)C1" study_system="KRAS-mutant PDC multicell tumor spheroid viability" measure_name="viability, T/C" result_units=% observed_measurement=102

# batch: return viability, T/C for each of the 4 compounds below
1. CC1COCCN1c1cc(-c2ccnn2C)c2ccnc(-c3ccn[nH]3)c2n1 (stereo not given) + CNCc1ccccc1-c1csc(C(C)Nc2nc(C)nc3cc(OC)c(OC)cc23)c1
2. COc1cc(Nc2ncc3c(n2)-c2ccc(Cl)cc2C(c2c(F)cccc2OC)=NC3)ccc1C(=O)O + C=CC(=O)N1CCN(c2nc(OCC3CCCN3C)nc3c2CCN(c2cccc4cccc(C)c24)C3)CC1CC#N
3. CC(=O)OC12COC1CC(O)C1(C)C(=O)C(O)C3=C(C)C(OC(=O)C(O)C(NC(=O)OC(C)(C)C)c4ccccc4)CC(O)(C(OC(=O)c4ccccc4)C21)C3(C)C (stereo not given) + CNCc1ccccc1-c1csc(C(C)Nc2nc(C)nc3cc(OC)c(OC)cc23)c1
4. CC1(C)CCC(CN2CCN(c3ccc(C(=O)NS(=O)(=O)c4ccc(NCC5CCOCC5)c([N+](=O)[O-])c4)c(Oc4cnc5[nH]ccc5c4)c3)CC2)=C(c2ccc(Cl)cc2)C1 + C=CC(=O)N1CCN(c2nc(=O)n(-c3c(C)ccnc3C(C)C)c3nc(-c4c(O)cccc4F)c(F)cc23)C(C)C1

Result:
1. 0.08
2. 6.1
3. 0.1
4. 86.9

Task: What value of measured viability, T/C is listed for Cn1nccc1Nc1nccc(-c2cc3c(s2)C(C)(C)N(CCN2CCOCC2)C3=O)n1 + COc1cc2nc(C)nc(NC(C)c3cc(N)cc(C(F)(F)F)c3)c2cc1OC1CCOC1 ?
Result: 36.1

----------
System: KRAS-mutant PDC multicell tumor spheroid viability
experiment: Anticancer human tumor 521955-158-R2-J5-PDC cell line growth inhibition [KRAS2];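 further: viability read after seven days of drug exposure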
test-settings: second compound 10 µM; first compound 0.0316 µM; stronger effect = lower value
# note: exactly 0.3% is not below, so it is label 0; use label 1 for viability, T/C strictly under it

compound="CCN1CCN(Cc2ccc(Nc3ncc(F)c(-c4cc(F)c5nc(C)n(C(C)C)c5c4)n3)nc2)CC1 + CNCc1ccccc1-c1csc(C(C)Nc2nc(C)nc3cc(OC)c(OC)cc23)c1" group="label 1"
compound="Cn1ncnc1[C@H]1c2n[nH]c(=O)c3cc(F)cc(c23)N[C@@H]1c1ccc(F)cc1 + COc1cc2nc(C)nc(NC(C)c3cc(N)cc(C(F)(F)F)c3)c2cc1OC1CCOC1" group="label 0"
compound="CC1OCC2(CCN(c3cnc(Sc4ccnc(N)c4Cl)c(N)n3)CC2)C1N (stereo not given) + COc1cc2nc(C)nc(NC(C)c3cc(N)cc(C(F)(F)F)c3)c2cc1OC1CCOC1" group="label 0"

Task: Lab note: viability, T/C threshold 0.3%. Does this compound come in strictly under it? CN(C)C/C=C/C(=O)Nc1cc2c(Nc3ccc(F)c(Cl)c3)ncnc2cc1O[C@H]1CCOC1 + CNCc1ccccc1-c1csc(C(C)Nc2nc(C)nc3cc(OC)c(OC)cc23)c1
Result: label 1

----------
Test system: KRAS-mutant PDC multicell tumor spheroid viability
experiment: Anticancer human tumor 521955-158-R2-J5-PDC cell line growth inhibition [KRAS2];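 further: viability read after seven days of drug exposure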
test-settings: second compound 0.0316 µM; first compound 0.316 µM; stronger effect = lower value
# note: exactly 50% is not below, so it is 0.0; use 1.0 for viability, T/C strictly under it

compound="Cn1nccc1Nc1nccc(-c2cc3c(s2)C(C)(C)N(CCN2CCOCC2)C3=O)n1 + C=CC(=O)N1CCN(c2nc(OCC3CCCN3C)nc3c2CCN(c2cccc4cccc(C)c24)C3)CC1CC#N" study_system="KRAS-mutant PDC multicell tumor spheroid viability" group=0.0
compound="COC(=O)c1ccc2c(C(=Nc3ccc(N(C)C(=O)CN4CCN(C)CC4)cc3)c3ccccc3)c(O)[nH]c2c1 + C=CC(=O)N1CCN(c2nc(OCC3CCCN3C)nc3c2CCN(c2cccc4cccc(C)c24)C3)CC1CC#N" study_system="KRAS-mutant PDC multicell tumor spheroid viability" group=0.0
compound="CC1OCC2(CCN(c3cnc(Sc4ccnc(N)c4Cl)c(N)n3)CC2)C1N (configuration not stated) + C=CC(=O)N1CCN(c2nc(OCC3CCCN3C)nc3c2CCN(c2cccc4cccc(C)c24)C3)CC1CC#N" study_system="KRAS-mutant PDC multicell tumor spheroid viability" group=0.0

Task: Lab note: viability, T/C threshold 50%. Does this compound come in strictly under it? CC1COCCN1c1cc(-c2ccnn2C)c2ccnc(-c3ccn[nH]3)c2n1 (configuration not stated) + C=CC(=O)N1CCN(c2nc(OCC3CCCN3C)nc3c2CCN(c2cccc4cccc(C)c24)C3)CC1CC#N
Result: 1.0

Task: Lab note: viability, T/C threshold 50%. Does this compound come in strictly under it? CC(=O)OC12COC1CC(O)C1(C)C(=O)C(O)C3=C(C)C(OC(=O)C(O)C(NC(=O)OC(C)(C)C)c4ccccc4)CC(O)(C(OC(=O)c4ccccc4)C21)C3(C)C (configuration not stated) + C=CC(=O)N1CCN(c2nc(OCC3CCCN3C)nc3c2CCN(c2cccc4cccc(C)c24)C3)CC1CC#N
Result: 1.0

Task: Lab note: viability, T/C threshold 50%. Does this compound come in strictly under it? COc1cc2nccc(Oc3ccc(NC(=O)C4(C(=O)Nc5ccc(F)cc5)CC4)cc3)c2cc1OC + C=CC(=O)N1CCN(c2nc(OCC3CCCN3C)nc3c2CCN(c2cccc4cccc(C)c24)C3)CC1CC#N
Result: 0.0

----------
Test system: KRAS-mutant PDC multicell tumor spheroid viability
experiment: Anticancer human tumor 521955-158-R2-J5-PDC cell line growth inhibition [KRAS2];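 further: viability read after seven days of drug exposure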
test-settings: second compound 0.316 µM; first compound 3.16 µM; stronger effect = lower value
measure-name: viability, T/C (%)
Give bare numbers, in %.

Examples from the recorded data:
molecule="CC1(C)CCC(CN2CCN(c3ccc(C(=O)NS(=O)(=O)c4ccc(NCC5CCOCC5)c([N+](=O)[O-])c4)c(Oc4cnc5[nH]ccc5c4)c3)CC2)=C(c2ccc(Cl)cc2)C1 + C=CC(=O)N1CCN(c2nc(OCC3CCCN3C)nc3c2CCN(c2cccc4cccc(C)c24)C3)CC1CC#N" study_system="KRAS-mutant PDC multicell tumor spheroid viability" result_units=% observed_measurement=19.3
molecule="CC1COCCN1c1cc(-c2ccnn2C)c2ccnc(-c3ccn[nH]3)c2n1 (stereo not given) + COc1cc2nc(C)nc(NC(C)c3cc(N)cc(C(F)(F)F)c3)c2cc1OC1CCOC1" study_system="KRAS-mutant PDC multicell tumor spheroid viability" result_units=% observed_measurement=22.8
molecule="COc1cc2nccc(Oc3ccc(NC(=O)C4(C(=O)Nc5ccc(F)cc5)CC4)cc3)c2cc1OC + C=CC(=O)N1CCN(c2nc(=O)n(-c3c(C)ccnc3C(C)C)c3nc(-c4c(O)cccc4F)c(F)cc23)C(C)C1" study_system="KRAS-mutant PDC multicell tumor spheroid viability" result_units=% observed_measurement=66.8

# batch: return viability, T/C for each of the 3 molecules below
1. CC1(C)CCC(CN2CCN(c3ccc(C(=O)NS(=O)(=O)c4ccc(NCC5CCOCC5)c([N+](=O)[O-])c4)c(Oc4cnc5[nH]ccc5c4)c3)CC2)=C(c2ccc(Cl)cc2)C1 + CNCc1ccccc1-c1csc(C(C)Nc2nc(C)nc3cc(OC)c(OC)cc23)c1
2. Cn1nccc1Nc1nccc(-c2cc3c(s2)C(C)(C)N(CCN2CCOCC2)C3=O)n1 + C=CC(=O)N1CCN(c2nc(=O)n(-c3c(C)ccnc3C(C)C)c3nc(-c4c(O)cccc4F)c(F)cc23)C(C)C1
3. Cn1nccc1Nc1nccc(-c2cc3c(s2)C(C)(C)N(CCN2CCOCC2)C3=O)n1 + CNCc1ccccc1-c1csc(C(C)Nc2nc(C)nc3cc(OC)c(OC)cc23)c1

Result:
1: 80.8; 2: 47; 3: 29.4

# batch: return viability, T/C for each of the 7 molecules below
1. COc1cc(Nc2ncc3c(n2)-c2ccc(Cl)cc2C(c2c(F)cccc2OC)=NC3)ccc1C(=O)O + C=CC(=O)N1CCN(c2nc(OCC3CCCN3C)nc3c2CCN(c2cccc4cccc(C)c24)C3)CC1CC#N
2. COc1cc(Nc2ncc3c(n2)-c2ccc(Cl)cc2C(c2c(F)cccc2OC)=NC3)ccc1C(=O)O + COc1cc2nc(C)nc(NC(C)c3cc(N)cc(C(F)(F)F)c3)c2cc1OC1CCOC1
3. CC1OCC2(CCN(c3cnc(Sc4ccnc(N)c4Cl)c(N)n3)CC2)C1N (stereo not given) + C=CC(=O)N1CCN(c2nc(OCC3CCCN3C)nc3c2CCN(c2cccc4cccc(C)c24)C3)CC1CC#N
4. CC(C)NCC(C(=O)N1CCN(c2ncnc3c2C(C)CC3O)CC1)c1ccc(Cl)cc1 (stereo not given) + COc1cc2nc(C)nc(NC(C)c3cc(N)cc(C(F)(F)F)c3)c2cc1OC1CCOC1
5. O=C(c1cc(Cc2n[nH]c(=O)c3ccccc23)ccc1F)N1CCN(C(=O)C2CC2)CC1 + COc1cc2nc(C)nc(NC(C)c3cc(N)cc(C(F)(F)F)c3)c2cc1OC1CCOC1
6. COc1cc(Nc2ncc3c(n2)-c2ccc(Cl)cc2C(c2c(F)cccc2OC)=NC3)ccc1C(=O)O + CNCc1ccccc1-c1csc(C(C)Nc2nc(C)nc3cc(OC)c(OC)cc23)c1
7. O=C(c1cc(Cc2n[nH]c(=O)c3ccccc23)ccc1F)N1CCN(C(=O)C2CC2)CC1 + C=CC(=O)N1CCN(c2nc(OCC3CCCN3C)nc3c2CCN(c2cccc4cccc(C)c24)C3)CC1CC#N

Result:
[33.8, 37.3, 65.9, 71, 79.6, 47.6, 78.3]

# batch: return viability, T/C for each of the 2 molecules below
1. CC1OCC2(CCN(c3cnc(Sc4ccnc(N)c4Cl)c(N)n3)CC2)C1N (stereo not given) + COc1cc2nc(C)nc(NC(C)c3cc(N)cc(C(F)(F)F)c3)c2cc1OC1CCOC1
2. CCNC(=O)CC1N=C(c2ccc(Cl)cc2)c2cc(OC)ccc2-n2c(C)nnc21 (stereo not given) + C=CC(=O)N1CCN(c2nc(OCC3CCCN3C)nc3c2CCN(c2cccc4cccc(C)c24)C3)CC1CC#N

Result:
1. 64.2
2. 31.6

# batch: return viability, T/C for each of the 5 molecules below
1. Cn1nccc1Nc1nccc(-c2cc3c(s2)C(C)(C)N(CCN2CCOCC2)C3=O)n1 + COc1cc2nc(C)nc(NC(C)c3cc(N)cc(C(F)(F)F)c3)c2cc1OC1CCOC1
2. CC(C)NCC(C(=O)N1CCN(c2ncnc3c2C(C)CC3O)CC1)c1ccc(Cl)cc1 (stereo not given) + CC1OCC2(CCN(c3cnc(Sc4ccnc(N)c4Cl)c(N)n3)CC2)C1N
3. COC(=O)c1ccc2c(C(=Nc3ccc(N(C)C(=O)CN4CCN(C)CC4)cc3)c3ccccc3)c(O)[nH]c2c1 + CC1OCC2(CCN(c3cnc(Sc4ccnc(N)c4Cl)c(N)n3)CC2)C1N
4. CC1(C)CCC(CN2CCN(c3ccc(C(=O)NS(=O)(=O)c4ccc(NCC5CCOCC5)c([N+](=O)[O-])c4)c(Oc4cnc5[nH]ccc5c4)c3)CC2)=C(c2ccc(Cl)cc2)C1 + CC1OCC2(CCN(c3cnc(Sc4ccnc(N)c4Cl)c(N)n3)CC2)C1N
5. CC(=O)OC12COC1CC(O)C1(C)C(=O)C(O)C3=C(C)C(OC(=O)C(O)C(NC(=O)OC(C)(C)C)c4ccccc4)CC(O)(C(OC(=O)c4ccccc4)C21)C3(C)C (stereo not given) + CC1OCC2(CCN(c3cnc(Sc4ccnc(N)c4Cl)c(N)n3)CC2)C1N

Result:
[23.8, 61.2, 30.1, 69.2, 18.2]
